DELFIA signal at 100 nM L1 reference
- target of assay: T1, L1 (DV1-GV4), soluble human Vδ1/Vγ4 γδ TCR heterodimer in leucine zipper format (human)
- T1 construct: Biotinylated in the DELFIA ranking; also called Antigen L1 (TRDV1/TRGV4); human DV1-GV4; not shown: gamma chain: Vγ4 (TRGV4) domain on a TCR constant region, leucine zipper, histidine tag
- T1 sequence (main, as listed by the source): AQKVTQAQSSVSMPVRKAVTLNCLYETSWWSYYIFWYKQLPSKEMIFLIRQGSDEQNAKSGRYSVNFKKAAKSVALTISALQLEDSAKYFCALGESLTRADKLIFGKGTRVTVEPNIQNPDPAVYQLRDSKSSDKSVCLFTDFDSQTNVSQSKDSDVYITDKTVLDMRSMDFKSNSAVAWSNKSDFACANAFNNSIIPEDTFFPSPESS
- experimental details: DELFIA, 100 nM biotinylated L1
API: value field is a number in fluorescence units; no unit string.

binder: 1245_P01_G09 (antibody, IgG1, V domains shown, IgG1) VH: QVQLQQSGPGLVKPSQTLSLTCAISGDSVSSNSAAWNWIRQSPSRGLEWLGRTYYGSKWYNEYALSVKSRIIINPDTSKNQFSLQLNSVTPEDTAVYYCARDYYYSMDVWGQGTLVTVSS VL: DIVMTQSPSTLSASIGDRVTITCRAGQSISTWLAWYQQKPGKAPKLLIYDASSLESGVPLRFSGSGSGTEFTLAISSLQPDDFATYYCQQSYSTPVTFGQGTKVEIK
DELFIA signal at 100 nM L1, fluorescence units: 18400
//
binder: 1138_P01_B09 (antibody, IgG1, V domains shown, IgG1) VH: EVQLLESGGGLVKPGGSLRLSCAASGFTFSDYYMSWIRQAPGKGLEWVSYISSSGSTIYYADSVKGRFTISRDNAKNSLYLQMNSLRAEDTAVYYCARHSWSDAFDIWGQGTLVTVSS VL: DIQMTQSPSSLSASVGDRVTITCQASQDISNYLNWYQQKPGKAPKLLIYDASNLETGVPSRFSGSGSGTDFTLTISSLQPEDFATYYCQQSYSTPLTFGGGTKVEIK
DELFIA signal at 100 nM L1, fluorescence units: 29200

Record 1141_P01_E01 (antibody, IgG1, V domains shown, IgG1, lambda light chain) VH: QVQLVQSGAEVKKPGESLKISCKGSGYSFTSYWIGWVRQMPGKGLEWMGIIYPGDSDTRYSPSFQGQVTISADKSISTAYLQWSSLKASDTAMYYCARHQVDTRTADYWGQGTLVTVSS VL: SQSALTQPASVSGSPGQSVTISCTGTRSDVGGYNYVSWYQHHPGKAPKLMIYEVSNRPSGVSNRFSGSKSGNTASLTISGLQAEDEADYYCSSYTSTSTLVFGGGTKLTVL . Reported DELFIA signal at 100 nM L1: 137000
